// values below are reported IC50
# Test system: DU145 (prostate cancer)
# assay-summary: Effect of compounds on tumor cell lines (assay of Latham et al.), DU145
# Format: cell-based
# experimental-parameters: DU145 cells, 96 hours after treatment, 1 μM to 100 μM; read-out: DU 145 potency (IC50)
measurement-type: IC50

> print(dat)
                  compound.structure.string       result
1  O=C(C(=Cc1ccc(O)c([N+](=O)[O-])c1)SCc1ccc(Cl)cc1)c1ccc(Cl)cc1  10 to 25 µM
2  O=C(C(=Cc1ccc([N+](=O)[O-])c(O)c1)SCc1ccc(Br)cc1)c1c(F)c(F)c(F)c(F)c1F  10 to 25 µM
3  COc1cc(OC)c(C=C(SCc2ccc(Cl)c(Cl)c2)C(=O)c2ccc(Cl)cc2)c(OC)c1  10 to 25 µM

###

// values below are reported melting point
measurement-type: melting point

> print(dat)
                                    molecule  measurement.type         result
 1  Cc1ccc(/C=C(\C(=O)c2ccc([N+](=O)[O-])cc2)S(=O)(=O)Cc2ccc(Cl)cc2)s1 [Example 397]     melting point  180 to 182 °C
 2  Cc1ccc(CS(=O)(=O)/C(=C/c2c[nH]c3ccccc23)C(=O)c2ccc(Cl)cc2)cc1 [Example 430]     melting point  160 to 165 °C
 3  Cc1ccc(/C=C(\C(=O)c2ccc(Cl)cc2)S(=O)(=O)Cc2ccc(F)cc2)s1 [Example 417]     melting point  116 to 120 °C
 4  Cc1ccc(CS(=O)(=O)/C(=C/c2c[nH]c3ccc(Br)cc23)C(=O)c2ccc(Cl)cc2)cc1 [Example 439]     melting point  186 to 195 °C
 5  COc1cc(OC)c(/C=C(\C(=O)c2ccc(Br)cc2)S(=O)(=O)Cc2ccc(F)cc2)c(OC)c1 [Example 399]     melting point  176 to 182 °C
 6  O=C(/C(=C\c1ccccc1OCc1ccccc1)S(=O)(=O)Cc1ccc(Cl)cc1)c1ccc(Br)cc1 [Example 381]     melting point  136 to 142 °C
 7  COc1ccc(CS(=O)(=O)/C(=C/c2c(OC)cc(OC)cc2OC)C(=O)c2ccc(OC)cc2)cc1 [Example 422]     melting point    60 to 62 °C
 8  CN(C)c1ccc(/C=C(\C(=O)c2ccc(Br)cc2)S(=O)(=O)Cc2ccc(F)cc2)cc1 [Example 408]     melting point  155 to 162 °C
 9  COc1cc(OC)c(/C=C(\C(=O)c2ccc(Cl)cc2)S(=O)(=O)Cc2ccc(F)cc2)c(OC)c1 [Example 400]     melting point  134 to 138 °C
10  CCOc1cc(/C=C(\C(=O)c2ccc(Cl)cc2)S(=O)(=O)Cc2ccc(Cl)cc2)ccc1O [Example 386]     melting point  134 to 139 °C
11  O=C(/C(=C\c1c(O)cc(O)cc1O)S(=O)(=O)Cc1ccc(Cl)cc1)c1ccc(Cl)cc1 [Example 377]     melting point  232 to 236 °C
12  COc1cc(OC)c(/C=C(\C(=O)c2ccc(Br)cc2)S(=O)(=O)Cc2ccc(Cl)cc2)c(OC)c1 [Example 378]     melting point  207 to 210 °C
13  O=C(/C(=C\c1ccc(I)cc1)S(=O)(=O)Cc1ccc(I)cc1)c1ccc(Br)cc1 [Example 420]     melting point  160 to 162 °C
14  COc1cc(OC)c(/C=C(\C(=O)c2ccc(Cl)cc2)S(=O)(=O)Cc2ccccc2Cl)c(OC)c1 [Example 357]     melting point  185 to 192 °C

From: patent US8808702B2
